assay: growth inhibition of non-replicating M. tuberculosis (AID 488890); details: Mycobacterium tuberculosis non-replicating, at 25 µM, stronger effect = higher value
Hit rate of the full screen: of about 320,000 compounds, about 1,300 (0.41%) were called active. About 3% were inconclusive and are not listed. The list is a sample of the results. Entries with a potency or affinity are not part of this list.
Decide using inhibition: a value greater than or equal to 30% is criterion met, a smaller one is criterion not met.

{"columns": ["compound", "class name"],
 "data": [
  ["Cc1cc(C(=O)NCCC2=CCCCC2)c(C)o1", "criterion not met"],
  ["O=C(CNC(=O)c1[nH]cnc1C(=O)NC(c1ccccc1)c1ccccc1)OCc1ccccc1", "criterion met"],
  ["N#Cc1ccc(C23CC4(C2)[C@H](CN(Cc2ccc(-c5ccccc5)cc2)[C@@H]4c2ccccc2)C3c2ccccc2)cc1 (stereo partly specified)", "criterion met"],
  ["CCN(CC)C(=O)COc1ccc2c(-c3ccccc3)cc(=O)oc2c1", "criterion not met"],
  ["O=C(OCC(=O)N1CCCCC1)c1ccc2ccccc2n1", "criterion met"],
  ["FC(F)(F)c1cccc(CON=C2CCN(c3ncc(C(F)(F)F)cc3Cl)CC2)c1", "criterion not met"]
]}
